Attribute: inhibition
- Tested system: Histone-lysine N-methyltransferase EZH2 (Homo sapiens)
- Sequence (Q15910 whole entry, looked up): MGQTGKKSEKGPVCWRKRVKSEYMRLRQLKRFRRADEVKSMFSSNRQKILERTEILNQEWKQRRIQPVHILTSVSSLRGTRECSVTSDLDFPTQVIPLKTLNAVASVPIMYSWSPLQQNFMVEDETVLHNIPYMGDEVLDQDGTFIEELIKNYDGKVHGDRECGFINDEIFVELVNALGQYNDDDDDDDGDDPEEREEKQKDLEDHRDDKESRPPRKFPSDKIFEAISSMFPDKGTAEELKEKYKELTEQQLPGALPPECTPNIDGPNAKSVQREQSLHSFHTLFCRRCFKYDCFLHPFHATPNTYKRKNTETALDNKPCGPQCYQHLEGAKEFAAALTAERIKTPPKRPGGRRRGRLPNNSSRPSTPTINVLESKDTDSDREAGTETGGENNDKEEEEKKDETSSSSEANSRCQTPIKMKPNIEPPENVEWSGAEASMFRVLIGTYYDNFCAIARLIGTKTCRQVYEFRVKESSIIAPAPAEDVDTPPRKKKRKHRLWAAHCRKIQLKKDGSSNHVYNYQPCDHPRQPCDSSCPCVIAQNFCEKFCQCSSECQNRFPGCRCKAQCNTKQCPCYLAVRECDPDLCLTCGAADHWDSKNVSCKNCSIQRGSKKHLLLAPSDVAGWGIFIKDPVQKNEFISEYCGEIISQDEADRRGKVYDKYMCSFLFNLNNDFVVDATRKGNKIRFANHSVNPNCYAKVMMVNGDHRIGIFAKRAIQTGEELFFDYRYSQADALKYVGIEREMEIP
- Procedure text: Inhibition of PRC2 EZH2 sub unit (unknown origin) assessed as inhibition of SAM-mediated methyl transfer process at 50 uM preincubated for 15 mins followed by addition of H3K27me and [3H]SAM as substrate measured after 90 mins by radioactive methylation assay
Write it as a number; the unit % goes unstated.

Please review the following examples before continuing.
CC12CCCc3c(-c4ncn[nH]4)c(-c4ccccc4)c(=O)n(c31)-c1ccccc12 (stereo unspecified) = 1
COc1ccc2nc(Nc3nc(O)cc(CSc4nnnn4-c4ccccc4)n3)nc(C)c2c1 = 72
O=C1c2ccccc2-c2cccc3c2c1cc1ccccc13 = 34
CCOc1ccc(NC(=N)Nc2nc(O)cc(CSc3nnnn3-c3ccccc3)n2)cc1 = -1
COc1ccc(CN2CCN(c3cc(C)c(C#N)c4nc5ccccc5n34)CC2)cc1 = 0

The record that follows has no inhibition shown yet.
Lookup: Query: inhibition; subject: `Cc1cc(O)nc(Nc2ccccc2)n1`
Found: -2
